# assay context: [M-H]-; instrument: DT; stepped-field
endpoint: collision cross section (N2) (Å²)

smiles notation | endpoint | observed measurement
CCCCC/C=C\C/C=C\C/C=C\CCCCCCC(=O)O[C@H](COC(=O)CCCCCCC/C=C\C/C=C\CCCCC)COP(=O)(O)OC[C@H](N)C(=O)O | collision cross section (N2) | 283.69
CCCCC/C=C\C/C=C\CCCCCCCCCC(=O)O[C@H](COC(=O)CCCCCCC/C=C\CCCCCCCC)COP(=O)(O)OCCN | collision cross section (N2) | 277.01
CCCCCCCCCCCCCCCCCC(=O)OC[C@H](COP(=O)(O)OC[C@H](N)C(=O)O)OC(=O)CCCCCCCCCCCCCCCCC | collision cross section (N2) | 284.03
CCCCC/C=C\C/C=C\C/C=C\C/C=C\CCCCCC(=O)O[C@H](COC(=O)CCC/C=C\C/C=C\C/C=C\C/C=C\CCCCC)COP(=O)(O)OC[C@H](N)C(=O)O | collision cross section (N2) | 291.98
CCCCCC/C=C\CCCCCCCC(=O)OC[C@H](COP(=O)(O)OCCN)OC(=O)CCCCCCCCC/C=C\CCCCCCCC | collision cross section (N2) | 272.07

* * *

# assay context: [M+NH4]+; instrument: DT; single field, calibrated with Agilent tune mix (Agilent)
endpoint: collision cross section (N2) (Å²)

molecule | endpoint | observed measurement
CCCCCCCCCC/C=C\CCCCCCCCCC(=O)OC[C@@H](COC(=O)CCCCCCCCCCC)OC(=O)CCCCCCCCCCCCCCCCCCCCC [TG(56:1)] | collision cross section (N2) | 333.6
CCCC/C=C\CCCCCCCC(=O)OC[C@H](COC(=O)CCCCCCCCCCCCCCCCCCC)OC(=O)CCCCCCCCCCCCCCCCCCC [TG(54:1)] | collision cross section (N2) | 328.4
CCCCC/C=C\CCCCCCCC(=O)OC[C@H](COC(=O)CCCCCCCCC/C=C\CCCCCCCC)OC(=O)CCCCCCCCC/C=C\CCCCCCCC [TG(55:3)] | collision cross section (N2) | 327.5
CCCCC/C=C\CCCCCCCC(=O)OC[C@H](COC(=O)CCCCCCCCCCCCCCCCCC)OC(=O)CCCCCCCCCCCCCCCCCC [TG(53:1)] | collision cross section (N2) | 325
CCCCC/C=C\C/C=C\C/C=C\CCCCCCCCC(=O)OC[C@@H](COC(=O)CCCCCCCCCCCCCCCCC)OC(=O)CCCCCCCCC/C=C\C/C=C\CCCCC [TG(60:5)] | collision cross section (N2) | 339.4
CCCCCCC/C=C\CCCCCCCC(=O)OC[C@@H](COC(=O)CCCCCCCCCCC)OC(=O)CCCCCCC/C=C\CCCCCCC [TG(46:2)] | collision cross section (N2) | 300.4
CCCCC/C=C\C/C=C\C/C=C\CCCCCCCCC(=O)OC[C@@H](COC(=O)CCCCCCC/C=C\CCCCCCC)OC(=O)CCCCCCCCCCCCCCCCCC [TG(58:4)] | collision cross section (N2) | 336.6
CC/C=C\C/C=C\C/C=C\C/C=C\C/C=C\CCCCCC(=O)OC[C@@H](COC(=O)CCCCCCC/C=C\C/C=C\CCCCC)OC(=O)CCCCCC/C=C\C/C=C\C/C=C\CCCCC [TG(60:10)] | collision cross section (N2) | 334.1
CCCCCCCCCC/C=C\CCCCCCCCCC(=O)O[C@H](COC(=O)CCCCCCCCCCC)COP(=O)(O)OC[C@@H](O)CO [PG(34:1)] | collision cross section (N2) | 287.3
CCCC/C=C\C/C=C\CCCCCCCC(=O)O[C@H](COC(=O)CCCCCCC/C=C\CCCCCCCCC)COP(=O)(O)O [PA(36:3)] | collision cross section (N2) | 270.8
CC/C=C\C/C=C\C/C=C\C/C=C\C/C=C\C/C=C\CCC(=O)O[C@H](COC(=O)CCCCCCCCCCCCCCCCC)COP(=O)(O)O[C@H]1C(O)C(O)C(O)[C@@H](O)C1O (some centres undefined) [PI(40:6)] | collision cross section (N2) | 306.1
CCCCC/C=C\C/C=C\C/C=C\CCCCCCC(=O)O[C@H](COC(=O)CCCCCCCCCCCCCCC)COC(=O)CCCCCCCCCCCCCCCCCCCCC [TG(58:3)] | collision cross section (N2) | 336.8
CCCCC/C=C\C/C=C\C/C=C\C/C=C\CCCCCC(=O)OC[C@@H](COC(=O)CCCCCCCCCCC)OC(=O)CCCCCCCCCCCCCCCCCCCC [TG(55:4)] | collision cross section (N2) | 326
CCCCCCCCCC/C=C\CCCCCCCCCC(=O)OC[C@@H](COC(=O)CCCCCCCCCCCC)OC(=O)CCCCCCCCCCCC [TG(48:1)] | collision cross section (N2) | 310.9
CCCCCCCC/C=C\CCCCCCCC(=O)OC[C@H](COC(=O)CCCCCCCCC/C=C\CCCCCCCCCC)OC(=O)CCCCCCCCC/C=C\CCCCCCCCCC [TG(62:3)] | collision cross section (N2) | 346.8
CC/C=C\C/C=C\C/C=C\C/C=C\C/C=C\CCCCCC(=O)OC[C@@H](COC(=O)CCCC/C=C\C/C=C\C/C=C\C/C=C\CC)OC(=O)CCCCC/C=C\C/C=C\C/C=C\C/C=C\C/C=C\CC [TG(62:14)] | collision cross section (N2) | 332.7
CCCCC/C=C\CCCCCCCC(=O)OC[C@H](COC(=O)CCCCCCC/C=C\CCCCCCCCC)OC(=O)CCCCCCC/C=C\CCCCC [TG(49:3)] | collision cross section (N2) | 307.8
CC/C=C\C/C=C\C/C=C\C/C=C\C/C=C\CCCCCC(=O)OC[C@@H](COC(=O)CCCCCCC/C=C\CCCCCC)OC(=O)CCCCCC/C=C\C/C=C\C/C=C\CCCCC [TG(58:9)] | collision cross section (N2) | 330
CCCCCCCCCCCCCCCCCCCC(=O)OC[C@@H](COC(=O)CCCCCCCCCCC)OC(=O)CCCCCCCCCCCCCCCCCCC [TG(52:0)] | collision cross section (N2) | 323.4
CCCCC/C=C\C/C=C\C/C=C\CCCCC(=O)O[C@H](COC(=O)CCCCCCCCC/C=C\CCCCCCCC)COP(=O)(O)O [PA(38:4)] | collision cross section (N2) | 279.1
CC/C=C\C/C=C\C/C=C\C/C=C\C/C=C\CCCC(=O)OC[C@@H](COC(=O)CCCCCCCCCCCCCCCCC)OC(=O)CCCC/C=C\C/C=C\C/C=C\CCCCC [TG(56:8)] | collision cross section (N2) | 325.6
CCCC/C=C\CCCCCCCC(=O)OC[C@H](COC(=O)CCCCCCCCC/C=C\CCCCCCCC)OC(=O)CCCCCCCCC/C=C\CCCCCCCC [TG(54:3)] | collision cross section (N2) | 326.5
CCCCC/C=C\C/C=C\C/C=C\C/C=C\CCCCCC(=O)OC[C@@H](COC(=O)CCCCCCCCCCCC)OC(=O)CCCCCCC/C=C\CCCCCCCCC [TG(54:5)] | collision cross section (N2) | 322.1
CC/C=C\C/C=C\C/C=C\CCCCCCCC(=O)O[C@H](COC(=O)CCCCCCCCC/C=C\CCCCCCCC)COP(=O)(O)OC[C@@H](O)CO [PG(38:4)] | collision cross section (N2) | 294.5

Each recorded value in this set is attributed to the C3SDB collision cross section collection.
